# Target under test: bovine serum albumin (BSA) (Bos taurus, UniProt P02769)
# Sequence (P02769 25-607): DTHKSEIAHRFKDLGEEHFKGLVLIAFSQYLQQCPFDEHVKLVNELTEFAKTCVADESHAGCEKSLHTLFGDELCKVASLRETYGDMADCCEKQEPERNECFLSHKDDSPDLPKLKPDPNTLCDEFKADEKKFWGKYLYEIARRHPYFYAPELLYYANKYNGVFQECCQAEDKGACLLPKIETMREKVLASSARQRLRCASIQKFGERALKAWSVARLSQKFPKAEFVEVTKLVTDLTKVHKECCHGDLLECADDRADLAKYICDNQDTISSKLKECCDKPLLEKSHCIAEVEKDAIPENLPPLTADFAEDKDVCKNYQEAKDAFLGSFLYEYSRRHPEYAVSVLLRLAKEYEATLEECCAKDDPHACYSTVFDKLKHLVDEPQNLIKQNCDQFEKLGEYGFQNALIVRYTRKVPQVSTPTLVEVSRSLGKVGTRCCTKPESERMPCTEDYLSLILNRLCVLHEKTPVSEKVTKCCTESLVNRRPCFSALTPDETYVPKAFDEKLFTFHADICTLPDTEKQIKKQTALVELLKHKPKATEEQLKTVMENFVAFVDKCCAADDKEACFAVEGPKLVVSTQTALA
# Reported conditions: equal concentrations (1000 µg/mL); mean ± SE
Endpoint name: Inhibition (%) Protein Denaturation
Please give a number only; it is taken to be in %.

| Entry smiles | Inhibition (%) Protein Denaturation |
| --- | --- |
| O=C(Nc1ccc(Cl)cc1)c1c(Nc2ccccc2)n[nH]c1/N=C/c1ccc(N2CCCCC2)cc1 | 15.41 |
| COc1ccc(Nc2n[nH]c(N=Cc3c(C)n(C)n(-c4ccccc4)c3=O)c2C(=O)Nc2ccccc2)cc1 | 15.59 |
| COc1ccc(Nc2n[nH]c(N=Cc3c(C)nn(-c4ccccc4)c3Cl)c2C(=O)Nc2ccc(Cl)cc2)cc1 | 15.64 |

Query: bovine serum albumin (BSA) (Bos taurus, UniProt P02769) / Inhibition (%) Protein Denaturation / COc1ccc(Nc2n[nH]c(N=Cc3c(C)n(C)n(-c4ccccc4)c3=O)c2C(=O)Nc2ccc(C)cc2)cc1 : value?
Response: 8.05

Origin of values: paper PMC11125359
